# target-or-system: Human plasmin (Homo sapiens)
# Construct: Human plasmin is purchased; purchased Boehringer Mannheim, Indianapolis, Ind
# Sequence (P00747 97-810): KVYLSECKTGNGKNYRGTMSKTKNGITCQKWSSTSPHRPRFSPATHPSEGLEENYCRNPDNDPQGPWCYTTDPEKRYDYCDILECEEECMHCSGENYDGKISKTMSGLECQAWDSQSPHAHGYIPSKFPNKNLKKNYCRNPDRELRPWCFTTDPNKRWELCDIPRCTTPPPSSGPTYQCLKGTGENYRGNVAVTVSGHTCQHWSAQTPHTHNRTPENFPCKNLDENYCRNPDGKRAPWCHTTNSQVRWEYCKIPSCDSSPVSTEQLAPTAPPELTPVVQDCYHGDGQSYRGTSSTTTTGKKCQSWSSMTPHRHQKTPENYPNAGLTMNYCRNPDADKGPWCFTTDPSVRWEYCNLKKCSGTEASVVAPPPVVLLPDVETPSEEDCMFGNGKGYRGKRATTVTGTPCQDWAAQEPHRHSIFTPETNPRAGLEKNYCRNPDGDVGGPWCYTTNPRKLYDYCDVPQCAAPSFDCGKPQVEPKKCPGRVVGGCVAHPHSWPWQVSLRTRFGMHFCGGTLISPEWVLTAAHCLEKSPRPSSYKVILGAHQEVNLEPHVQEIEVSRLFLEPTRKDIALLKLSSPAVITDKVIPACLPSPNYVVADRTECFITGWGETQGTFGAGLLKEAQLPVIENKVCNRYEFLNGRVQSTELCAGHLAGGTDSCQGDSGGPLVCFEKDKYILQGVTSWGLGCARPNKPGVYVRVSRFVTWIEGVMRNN
# Sequence (P00747 97-580 partner limits assumed): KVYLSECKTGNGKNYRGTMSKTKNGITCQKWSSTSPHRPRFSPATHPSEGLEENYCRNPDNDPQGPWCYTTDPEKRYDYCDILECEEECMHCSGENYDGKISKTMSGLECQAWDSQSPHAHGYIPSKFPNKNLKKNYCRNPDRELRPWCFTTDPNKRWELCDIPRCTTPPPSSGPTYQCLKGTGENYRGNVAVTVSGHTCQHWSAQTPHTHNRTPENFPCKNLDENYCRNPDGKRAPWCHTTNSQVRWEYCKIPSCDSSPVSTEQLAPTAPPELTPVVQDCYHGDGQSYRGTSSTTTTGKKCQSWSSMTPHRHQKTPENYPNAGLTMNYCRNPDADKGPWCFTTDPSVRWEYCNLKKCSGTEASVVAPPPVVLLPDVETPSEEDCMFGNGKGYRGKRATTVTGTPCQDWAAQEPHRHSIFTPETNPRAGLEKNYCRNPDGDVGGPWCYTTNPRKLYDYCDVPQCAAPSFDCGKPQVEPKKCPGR
# method-summary: Kass with plasmin, chromogenic substrate
# Assay type: biochemical
# recorded-conditions: substrate H-D-Val-Leu-Lys-p-nitroanilide
Where a name gives a salt, the structure may show the parent alone.
Provide the reported Kass Plasmin of each item.

Challenge: Reported Kass Plasmin for Human plasmin (Homo sapiens), given N=C(N)NCc1ccc(CNC(=O)[C@@H]2CCCN2C(=O)[C@H](N)Cc2ccccc2)cc1 [Example 9] ?
Response given: < 0.001 × 10^6 (L/mole)

Challenge: Reported Kass Plasmin for Human plasmin (Homo sapiens), given N=C(N)c1cccc(CCNC(=O)[C@@H]2CCCN2C(=O)[C@@H]2NCC[C@@H]3CCCC[C@@H]32)c1 [Example 29] ?
Response given: < 0.001 × 10^6 (L/mole)

Challenge: Reported Kass Plasmin for Human plasmin (Homo sapiens), given CCS(=O)(=O)N[C@H](Cc1ccccc1)C(=O)N1CCC[C@H]1C(=O)NCCCc1cccc(C(=N)N)c1 [Example 31] ?
Response given: < 0.001 × 10^6 (L/mole)

Challenge: Reported Kass Plasmin for Human plasmin (Homo sapiens), given NCc1cccc(CNC(=O)[C@@H]2CCCN2C(=O)[C@H](N)Cc2ccccc2)c1 [Example 11, D-Phe-Pro-m-NHCH2 C6 H4 CH2 NH2.HCl] ?
Response given: 0.0060 × 10^6 (L/mole)

Challenge: Reported Kass Plasmin for Human plasmin (Homo sapiens), given CCS(=O)(=O)N[C@H](Cc1ccccc1)C(=O)N1CCC[C@H]1C(=O)NCc1cccc(NC(=N)N)c1 [Example 36] ?
Response given: < 0.001 × 10^6 (L/mole)

Challenge: Reported Kass Plasmin for Human plasmin (Homo sapiens), given N=C(N)NCCCCCCNC(=O)[C@@H]1CCCN1C(=O)[C@H](N)Cc1ccccc1 [Example 5, D-Phe-Pro-NH(CH2)6 NHC(NH)NH2.HCl] ?
Response given: 0.00022 × 10^6 (L/mole)

Challenge: Reported Kass Plasmin for Human plasmin (Homo sapiens), given O=C(O)CN[C@H](CC1CCCCC1)C(=O)N1CCC[C@H]1C(=O)NCCC1CCNCC1 [Example 54] ?
Response given: 0.01 × 10^6 (L/mole)

Challenge: Reported Kass Plasmin for Human plasmin (Homo sapiens), given CCS(=O)(=O)N[C@H](Cc1ccccc1)C(=O)N1[C@H](C(=O)NCc2ccc(C(=N)N)cc2)C[C@@H]2CCCC[C@@H]21 (relative stereo) [Example 45] ?
Response given: 1.1 × 10^6 (L/mole)

Challenge: Reported Kass Plasmin for Human plasmin (Homo sapiens), given O=C(O)CN[C@H](CC1CCCCC1)C(=O)N1CCC[C@H]1C(=O)NCCC1=CCNCC1 [Example 59] ?
Response given: < 0.001 × 10^6 (L/mole)

Challenge: Reported Kass Plasmin for Human plasmin (Homo sapiens), given N=C(N)c1ccc(CNC(=O)[C@@H]2CCCN2C(=O)[C@@H](CC2CCCCC2)NCC(=O)O)cc1 [Example 48] ?
Response given: 0.43 × 10^6 (L/mole)

Challenge: Reported Kass Plasmin for Human plasmin (Homo sapiens), given N=C(N)c1ccc(CNC(=O)[C@@H]2C[C@@H]3CCCC[C@@H]3N2C(=O)[C@@H](CC2CCCCC2)NCC(=O)O)cc1 (relative stereo) [Example 49] ?
Response given: 0.84 × 10^6 (L/mole)

Challenge: Reported Kass Plasmin for Human plasmin (Homo sapiens), given CC(C)CC[C@H]1C[C@@H](C(=O)NCc2ccc(C(=N)N)cc2)N(C(=O)[C@@H](CC2CCCCC2)NCC(=O)O)C1 (relative stereo) [Example 50] ?
Response given: 1.8 × 10^6 (L/mole)

Challenge: Reported Kass Plasmin for Human plasmin (Homo sapiens), given N=C(N)Nc1ccc(CCNC(=O)[C@@H]2CCCN2C(=O)[C@@H]2NCC[C@@H]3CCCC[C@@H]32)cc1 [Example 39] ?
Response given: < 0.001 × 10^6 (L/mole)

Challenge: Reported Kass Plasmin for Human plasmin (Homo sapiens), given N=C(N)c1ccc(CNC(=O)[C@@H]2C[C@@H]3CCCC[C@@H]3N2C(=O)[C@H]2CCCCN2)cc1 (relative stereo) [Example 20, D-hPro-Ohi-p-NHCH2 C6 H4 C(NH)NH2.3HCl] ?
Response given: 0.10 × 10^6 (L/mole)

Challenge: Reported Kass Plasmin for Human plasmin (Homo sapiens), given N=C(N)N1CCC(CNC(=O)[C@@H]2CCCN2C(=O)[C@@H](CC2CCCCC2)NCC(=O)O)CC1 [Example 56] ?
Response given: 0.01 × 10^6 (L/mole)

Challenge: Reported Kass Plasmin for Human plasmin (Homo sapiens), given N=C(N)NCCCCNC(=O)[C@@H]1CCCN1C(=O)[C@@H]1NCC[C@H]2CCCC[C@H]21 [Example 61, trihydrochloride] ?
Response given: 0.004 × 10^6 (L/mole)

Challenge: Reported Kass Plasmin for Human plasmin (Homo sapiens), given CCOC(=O)N[C@H](Cc1ccccc1)C(=O)N1CCC[C@H]1C(=O)NCCCCNC(=N)N [Example 3, EtOCO-D-Phe-Pro-Agm.HCl] ?
Response given: 0.0046 × 10^6 (L/mole)

Challenge: Reported Kass Plasmin for Human plasmin (Homo sapiens), given N=C(N)c1ccc(CNC(=O)[C@@H]2C[C@@H]3CCCC[C@@H]3N2C(=O)[C@@H]2NCC[C@@H]3CCCC[C@@H]32)cc1 (relative stereo) [Example 42] ?
Response given: 0.12 × 10^6 (L/mole)

Challenge: Reported Kass Plasmin for Human plasmin (Homo sapiens), given CCS(=O)(=O)N[C@H](Cc1ccccc1)C(=O)N1CCC[C@H]1C(=O)NCc1ccc(NC(=N)N)cc1 [Example 34] ?
Response given: 0.01 × 10^6 (L/mole)

Challenge: Reported Kass Plasmin for Human plasmin (Homo sapiens), given CCS(=O)(=O)N[C@H](Cc1ccccc1)C(=O)N1CCC[C@H]1C(=O)NCCc1cccc(C(=N)N)c1 [Example 27] ?
Response given: < 0.001 × 10^6 (L/mole)

Challenge: Reported Kass Plasmin for Human plasmin (Homo sapiens), given O=C(O)CN[C@H](CC1CCCCC1)C(=O)N1CCC[C@H]1C(=O)NCC1=CCNCC1 [Example 58] ?
Response given: < 0.001 × 10^6 (L/mole)

Challenge: Reported Kass Plasmin for Human plasmin (Homo sapiens), given N=C(N)c1cccc(CNC(=O)[C@@H]2CCCN2C(=O)[C@@H]2NCC[C@@H]3CCCC[C@@H]32)c1 [Example 25] ?
Response given: < 0.001 × 10^6 (L/mole)

Challenge: Reported Kass Plasmin for Human plasmin (Homo sapiens), given Nc1ccc(CNC(=O)[C@@H]2CCCN2C(=O)[C@H](N)Cc2ccccc2)cc1 [Example 13, D-Phe-Pro-p-NHCH2 C6 H4 NH2.HCl] ?
Response given: 0.00011 × 10^6 (L/mole)

Challenge: Reported Kass Plasmin for Human plasmin (Homo sapiens), given CCS(=O)(=O)N[C@H](Cc1ccccc1)C(=O)N1CCC[C@H]1C(=O)NCCc1ccc(C(=N)N)cc1 [Example 26] ?
Response given: 0.01 × 10^6 (L/mole)

Challenge: Reported Kass Plasmin for Human plasmin (Homo sapiens), given O=C(O)CN[C@H](CC1CCCCC1)C(=O)N1CCC[C@H]1C(=O)NCCCC1CCNCC1 [Example 55] ?
Response given: < 0.001 × 10^6 (L/mole)

Challenge: Reported Kass Plasmin for Human plasmin (Homo sapiens), given N=C(N)c1ccc(CNC(=O)[C@@H]2CCCN2C(=O)[C@H](N)CC2CCCCC2)cc1 [Example 51, D-Cha-Pro-p-NHCH2 C6 H4 C(NH)NH2.2HCl] ?
Response given: 0.13 × 10^6 (L/mole)

Challenge: Reported Kass Plasmin for Human plasmin (Homo sapiens), given N=C(N)Nc1cccc(CNC(=O)[C@@H]2CCCN2C(=O)[C@@H]2NCC[C@@H]3CCCC[C@@H]32)c1 [Example 40] ?
Response given: < 0.001 × 10^6 (L/mole)
